Molecular target: human APJ receptor (Homo sapiens)
Construct: expressed in transfected cells
Sequence (P35414 1-380): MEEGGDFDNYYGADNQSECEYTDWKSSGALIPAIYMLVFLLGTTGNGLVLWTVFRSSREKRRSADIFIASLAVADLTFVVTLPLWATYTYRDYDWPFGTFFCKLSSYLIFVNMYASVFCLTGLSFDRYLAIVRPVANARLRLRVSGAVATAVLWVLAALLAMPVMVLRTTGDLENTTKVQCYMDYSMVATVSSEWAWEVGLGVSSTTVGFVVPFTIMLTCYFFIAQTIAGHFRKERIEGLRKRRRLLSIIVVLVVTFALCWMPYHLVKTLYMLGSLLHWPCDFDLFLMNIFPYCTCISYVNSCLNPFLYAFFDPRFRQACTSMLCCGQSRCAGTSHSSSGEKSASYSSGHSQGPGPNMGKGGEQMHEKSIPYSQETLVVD
Test: Intracellular cAMP accumulation assay (APJ hcAMP, HTRF)
Assay type: cell-based
Conditions: Table 1; HEK293 cells stably expressing human APJ receptor; inhibition of forskolin-mediated cAMP production; read-out: APJ hcAMP EC50
EC50 values, listed per item

Look over these answered cases.
[
  {
    "compound": "CCC[C@@H](NC(=O)c1ccc(-c2ccc(Cl)cc2-c2nc3ccccc3[nH]2)c(C(=O)O)c1)c1ccccc1 [Example 54]",
    "experimentalReadout": "EC50",
    "result": "10 to 100 nM"
  },
  {
    "compound": "CCC[C@@H](NC(=O)c1ccc(-c2cc(Cl)ccc2-c2nc3c(ccc4ccccc43)[nH]2)c(C(=O)O)c1)c1ccccc1 [Example 25]",
    "experimentalReadout": "EC50",
    "result": "10 to 100 nM"
  },
  {
    "compound": "CCC[C@@H](NC(=O)c1ccc(-c2cc(Cl)ccc2-c2nc3cc(C#N)ccc3[nH]2)c(C(=O)O)c1)c1ccccc1 [Example 28]",
    "experimentalReadout": "EC50",
    "result": "10 to 100 nM"
  },
  {
    "compound": "CCC[C@H](NC(=O)c1ccc(-c2c(Cl)cccc2-c2nc3cc(F)c(Cl)cc3[nH]2)c(C(=O)O)c1)c1ccc(Cl)cc1 (single isomer, unassigned) [Example 239]",
    "experimentalReadout": "EC50",
    "result": "< 10 nM"
  },
  {
    "compound": "CCCC(NC(=O)c1ccc(-c2c(Cl)cccc2-c2nc3cc(OC)c(OC)cc3[nH]2)c(C(=O)O)c1)c1ccccc1 (stereo not shown) [Example 93]",
    "experimentalReadout": "EC50",
    "result": "< 10 nM"
  },
  {
    "compound": "CCC[C@@H](NC(=O)c1cc(C(=O)O)c(-c2cc(Cl)ccc2-c2nc3ccccc3[nH]2)cc1C)c1ccccc1 [Example 11]",
    "experimentalReadout": "EC50",
    "result": "< 10 nM"
  },
  {
    "compound": "CCC[C@@H](NC(=O)c1ccc(-c2cc(Cl)ccc2-c2ncc(-c3ccccc3)[nH]2)c(C(=O)O)c1)c1ccccc1 [Example 4]",
    "experimentalReadout": "EC50",
    "result": "< 10 nM"
  },
  {
    "compound": "COC[C@@H](NC(=O)c1ccc(-c2ccccc2-c2nc3ccccc3[nH]2)c(C(=O)O)c1)c1ccccc1 [Example 66]",
    "experimentalReadout": "EC50",
    "result": "10 to 100 nM"
  }
]

Prompt: Return reported EC50; argument: COc1cc2[nH]c(-c3cccc(Cl)c3-c3ccc(C(=O)NCC(C)C)cc3C(=O)O)nc2cc1F [Example 121]
Completion: 10 to 100 nM

Prompt: Param item: COc1cc2[nH]c(-c3cccc(Cl)c3-c3ccc(C(=O)NCCc4ccccc4)cc3C(=O)O)nc2cc1F [Example 112]
Completion: < 10 nM

Prompt: Param item: CCC[C@@H](NC(=O)c1ccc(-c2cc(Cl)ccc2-c2nc3cc(OC)ccc3[nH]2)c(-c2nc(=S)o[nH]2)c1)c1ccccc1 [Example 10]
Completion: 101 to 500 nM

Prompt: Param item: CCC[C@@H](NC(=O)c1ccc(-c2cc(C)ccc2-c2nc3cc(OC)ccc3[nH]2)c(C(=O)O)c1)c1ccccc1 [Example 35]
Completion: < 10 nM

Prompt: Param item: CCC[C@@H](NC(=O)c1ccc(-c2cc(Cl)ccc2-c2nc3cc(O)ccc3[nH]2)c(C(=O)O)c1)c1ccccc1 [Example 3]
Completion: < 10 nM
